- target: T1, human Aβ pE3-18 peptide, pEFRHDSGYEVHHQKLV (human)
- T1 construct: The range 3-18 counts on the Aβ peptide; also called pE3-Aβ18; pE3-Aβ peptide
- T1 peptide: [pGlu]FRHDSGYEVHHQKLV
- assay-protocol: SPR, 1:1 Langmuir fit
Non-standard residues stand in square brackets, D forms with d. No end group written: not given here. pGlu = O=C1CC[C@@H](C(=O)O)N1
Reported Kd values for the following binders.
Number in nM, nothing else.

>>> reading("humanized antibody clone #6 sequence variant VH: SEQ ID NO: 24, VL: SEQ ID NO: 14 (antibody, human IgG1, V domains shown) VH: QVQLVQSGAEVKKSGASVKVSCKASGYSFTGHTMNWVRQAPGQGLEWMGLINPSNGVTRYNQKFQGRVTITRDTSTTTVHMELTSLTSEDTAVYYCTREAKREWDETYWGQGTLVTVSS VL: DVVMTQSPLSLPVTLGQPASISCKSSQSLLYSDGKTYLNWFQQRPGQSPRRLTYLVSKLDSGVPDRFSGSGSGTDFTLKISRVEAEDVGVYYCVQGTHFPFTFGGGTKVEIK")
9.36

Continue with the binder presented below.
The binder listed as humanized antibody clone #6 sequence variant VH: SEQ ID NO: 27, VL: SEQ ID NO: 14 (antibody, human IgG1, V domains shown) VH: QVQLVQSGAEVKKSGASVKVSCKASGYSFTGHTMNWVRQAPGQGLEWMGLINPSNGVTRYNQKFQGRVTITRDTSTTTVHMELTSLTSEDTATYYCTREAKREWDETYWGQGTLVTVSS VL: DVVMTQSPLSLPVTLGQPASISCKSSQSLLYSDGKTYLNWFQQRPGQSPRRLTYLVSKLDSGVPDRFSGSGSGTDFTLKISRVEAEDVGVYYCVQGTHFPFTFGGGTKVEIK has a reported Kd of 5.09
